Quick list: IC50 per entry.
- targetOrTestSystem: human MRGPRD (Homo sapiens)
- Sequence (Q8TDS7 whole entry): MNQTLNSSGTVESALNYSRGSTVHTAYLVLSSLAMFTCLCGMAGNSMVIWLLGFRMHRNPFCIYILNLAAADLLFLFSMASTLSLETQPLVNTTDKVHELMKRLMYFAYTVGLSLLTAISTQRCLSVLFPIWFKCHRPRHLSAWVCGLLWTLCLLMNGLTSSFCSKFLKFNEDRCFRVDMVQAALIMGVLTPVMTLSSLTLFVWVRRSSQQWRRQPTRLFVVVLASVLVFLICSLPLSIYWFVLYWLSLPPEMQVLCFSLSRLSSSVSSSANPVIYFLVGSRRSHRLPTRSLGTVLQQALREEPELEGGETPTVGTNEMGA
- testDetails: MRGPRD antagonist activity, IP-One HTRF assay in CHO cells stably expressing human MRGPRD (versus 100 μM β-Alanine agonist)

Worked cases, IC50 given:
Report IC50 for CCn1cc(-c2cccc(-n3nnc(C(=O)Nc4ccncc4)c3C3CC3)c2)cn1 please.
1000 to 3000 nM

Report IC50 for Cc1nn(C)cc1-c1ccc(-n2nnc(C(=O)Nc3ccncc3)c2C2CC2)cc1 please.
100 to 500 nM

Report IC50 for CCn1cc(CNC(=O)c2nnn(-c3ccc(-c4ccc(C#N)cc4)cc3)c2C2CCC2)cn1 please.
500 to 1000 nM

Report IC50 for Cn1cc(-c2ccc(-n3nnc(C(=O)Nc4ccncc4)c3C3CC3)cc2)c(C(F)(F)F)n1 please.
> 3000 nM

Report IC50 for Cn1ncc(-c2ccc(-n3nnc(C(=O)Nc4ccncc4)c3C3CC3)cc2)c1-c1ccccc1 please.
500 to 1000 nM

Report IC50 for Cc1ccc(-c2ccc(-n3nnc(C(=O)Nc4ccncc4)c3C3CC3)cc2)s1 please.
1000 to 3000 nM

Next:
Report IC50 for CCc1cc(NC(=O)c2nnn(-c3ccc(-c4c(C)nn(CC)c4C)cc3)c2C2CC2)ccn1 please.
100 to 500 nM

Report IC50 for O=C(Nc1ccncc1)c1nnn(-c2ccc(-c3ccoc3)cc2)c1C1CC1 please.
100 to 500 nM

Report IC50 for O=C(Nc1ccncc1)c1nnn(-c2ccc(-c3cc(C(F)(F)F)[nH]n3)cc2)c1C1CC1 please.
1000 to 3000 nM

Report IC50 for Cc1ccc(CNC(=O)c2nnn(-c3ccc(-c4ccc(C#N)c(F)c4)cc3)c2C2CC2)cn1 please.
100 to 500 nM

Report IC50 for Cc1nn(C)c(CO)c1-c1ccc(-n2nnc(C(=O)Nc3ccncc3)c2C2CC2)cc1 please.
500 to 1000 nM

Report IC50 for Cc1ccc(-n2nnc(C(=O)Nc3cc(C)nc(C)c3)c2C2CC2)cc1 please.
500 to 1000 nM

Report IC50 for Cc1[nH]nc(-c2ccc(-n3nnc(C(=O)Nc4ccncc4)c3C3CC3)cc2)c1Cl please.
500 to 1000 nM

Report IC50 for O=C(Nc1ccncc1)c1nnn(-c2ccc(-c3ncc[nH]3)cc2)c1C1CC1 please.
> 3000 nM

Report IC50 for N#Cc1ccc(-n2nnc(C(=O)Nc3ccncc3)c2C2CC2)cc1 please.
> 3000 nM

Report IC50 for Cc1ccc(C2(NC(=O)c3nnn(-c4ccc(-c5c(C)nn(-c6ccccc6)c5C)cc4F)c3C3CC3)CC2)cn1 please.
< 100 nM

Report IC50 for O=C(Nc1ccncc1)c1nnn(-c2ccc(-c3cncs3)cc2)c1C1CC1 please.
1000 to 3000 nM

Report IC50 for O=C(Nc1ccncc1)c1nnn(-c2ccc(-c3cscn3)cc2)c1C1CC1 please.
1000 to 3000 nM

Report IC50 for Cc1nn(C)c2ccnc(NC(=O)c3nnn(-c4ccc(-c5ccccc5)cc4)c3C3CC3)c12 please.
1000 to 3000 nM

Report IC50 for CC(C)n1cc(NC(=O)c2nnn(-c3ccc(-c4ccccc4)cc3)c2C2CC2)cn1 please.
> 3000 nM

Report IC50 for CCn1nc(C)c(-c2ccc(-n3nnc(C(=O)Nc4ccnc(C)c4)c3C3CC3)cc2)c1C please.
< 100 nM

Report IC50 for CC(=O)c1ccc(-c2cccc(-n3nnc(C(=O)Nc4ccncc4)c3C3CC3)c2)c(F)c1 please.
100 to 500 nM

Report IC50 for Cc1cc(NC(=O)c2nnn(-c3cccc(-c4ccn(C)n4)c3)c2C2CC2)ccn1 please.
500 to 1000 nM

Report IC50 for O=C(Nc1ccncc1)c1nnn(-c2ccc(-c3cccc(F)c3)cc2)c1C1CC1 please.
1000 to 3000 nM

Report IC50 for Cc1cc(NC(=O)c2nnn(-c3ccc(-c4c(C)nn5cccnc45)cc3)c2C2CC2)ccn1 please.
< 100 nM

Report IC50 for COc1cc(NC(=O)c2nnn(-c3ccc(-c4ccccc4)cc3)c2C2CC2)ccn1 please.
1000 to 3000 nM
